Examples of compounds with documented pKa follow.

Consider the compound shown here: Cc1ccc(-c2nc3ccc(C)cn3c2CC(=O)N(C)C)cc1 What is its recorded pKa?
6.02

***
Need pKa of CCN(CCN(CC(=O)O)CC(=O)O)CCN(CC(=O)O)CC(=O)O , thanks.
2.8

Now give it for NS(=O)(=O)c1cc(S(=O)(=O)c2ccc(O)cc2)cs1 too.
7.46

Then this compound: CN1CC(C)(c2cccc(NC(=O)c3ccc(Cl)cn3)c2)N=C(N)C1=O (stereo unspecified)
7.6

Can you check CN(c1ccc(Nc2c3ccccc3nc3ccccc23)cc1)S(C)(=O)=O next?
6.95

Proceed to Cc1c(N(C)C)c(=O)n(-c2ccccc2)n1C
4.48
